Reference for the values: patent US20230000842A1

- target-system: CLK3 kinase (Homo sapiens, UniProt P49761)
- Sequence (P49761 whole entry): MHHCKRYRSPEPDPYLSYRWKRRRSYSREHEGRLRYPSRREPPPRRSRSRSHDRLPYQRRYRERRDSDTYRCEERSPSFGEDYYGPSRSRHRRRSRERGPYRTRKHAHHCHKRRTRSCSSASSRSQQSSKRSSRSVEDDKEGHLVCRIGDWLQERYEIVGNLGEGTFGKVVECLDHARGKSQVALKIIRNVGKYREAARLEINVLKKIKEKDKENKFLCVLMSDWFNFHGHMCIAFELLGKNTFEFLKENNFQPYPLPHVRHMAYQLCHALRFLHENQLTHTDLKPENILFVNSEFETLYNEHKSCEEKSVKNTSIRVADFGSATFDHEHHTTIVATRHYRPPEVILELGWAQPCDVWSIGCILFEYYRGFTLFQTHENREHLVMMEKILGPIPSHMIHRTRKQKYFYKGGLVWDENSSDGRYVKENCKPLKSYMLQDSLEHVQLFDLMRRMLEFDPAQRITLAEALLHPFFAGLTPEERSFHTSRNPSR
- procedure-summary: CLK3 kinase activity assay (Z-lyte FRET);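 note: kinase activity read as coumarin/fluorescein emission ratio by FRET, unphosphorylated peptide as 0% and phosphorylated peptide as 100% control, values from non-linear regression of dose-response curves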
- run-parameters: Z-lyte Ser/Thr 18 peptide, 156 μM ATP, 1 h at room temperature
quantity: EC50 (nM)

# example entries with known answers
- CC(C)Nc1cncc(-c2cc3c(-c4cc5c(-c6cccnc6)ccnc5[nH]4)n[nH]c3cn2)c1 [compound 363]: 9840
- FC1(F)CCN(Cc2cncc(-c3cc4c(-c5cc6cccnc6[nH]5)n[nH]c4cn3)c2)C1 [compound 445]: 203

(a) O=C(Nc1cc2cc(-c3cnn4c3CCNC4)ccc2cn1)c1ccc(OC(F)F)cc1 [compound 574]
(b) c1cncc(-c2cnc3[nH]nc(-c4nc5c(-c6cccnc6)cncc5[nH]4)c3c2)c1 [compound 181]
(c) CC(C)CC(=O)Nc1cncc(-c2ccc3[nH]nc(-c4nc5c(-c6cc(F)cc(NCCN(C)C)c6)cncc5[nH]4)c3c2)c1 [compound 281]
(d) CC(C)OCCCNC(=O)c1n[nH]c2ccc(-c3cccnc3)cc12 [compound 58]
(e) CS(=O)(=O)NCc1cc(F)cc(-c2cncc3[nH]c(-c4n[nH]c5ncc(-c6cncc(CN7CCCCC7)c6)cc45)cc23)c1 [compound 535]
Q: Order the records so the highest EC50 appears first and the lowest last. # output: labels, in the requested order
A: d, a, e, c, b
